- Tested on: OVCAR-4 ovarian
- EXPERIMENTAL_DETAILS: NCI tumour cell line growth inhibition, 48 h
The following molecules are listed with their measured TGI values.

- Cc1c(C)c2c(c(N)c1C#N)C(=O)N(Nc1ccccc1)C2=O: > 100 µM
- COc1cc(NC(C)=O)ccc1C(=O)N/N=C/c1ccc(Cl)cc1Cl: 85.5 µM

Bench note: what TGI did `Cc1ccccc1C(=O)c1ccccc1O` show?
> 100 µM

Ok, now N#CC(C(=O)/C(=N/N)C(C#N)c1ccccc1)c1ccccc1 (stereo not given)
> 100 µM

// same read-out, input: `Nc1c(Br)cc(Br)c2c1[nH]c(=O)c1ccccc12`
3.43 µM

Next entry: `Cc1nc2sc3ccccc3n2c(=O)c1N=Nc1ccc(Br)cc1`
> 100 µM

Repeat for the following molecule: `Cc1ccc(NC(=O)CSc2nc(C)nc3c2sc(=S)n3-c2ccccc2)cc1`
6.06 µM

Check `Fc1ccc2c(c1)c(-c1nc(-c3c[nH]c4ncccc34)cs1)cn2CCCN1CCCCC1` too.
4.01 µM

Would you mind doing `Nc1nc(N)c(C2=CCNCC2)c(=O)[nH]1` as well?
> 100 µM

Now consider CCCCCC/C=C1\CCC(CN2CCCC2)C1=O (stereo not given) and answer again.
49.1 µM
